Test: NCI Yeast Anticancer Drug Screen. Data for the bub3 strain (AID 167)
Conditions: S. cerevisiae bub3 mutant strain, at 50.0 µM, stronger effect = higher value
About 79,000 compounds went through this panel and 15% of them were active in at least one assay; those are over-represented in the sample as a whole.
Below, each of the compounds is paired with its reported growth inhibition value.
# unit: % | format: bare number

Known growth inhibition results, listed for orientation:
> print(dat)
                                   compound  recorded.endpoint  result.number
1  Cc1c(C)c2ccc(OCC(O)COC(C)C)c(C)c2oc1=O (stereo unspecified)  growth inhibition          -1.95
2                       OCCCOc1ccc2ccccc2c1  growth inhibition          -7.25
3  COc1cc(/C=C/c2ccc([N+](=O)[O-])cc2[N+](=O)[O-])ccc1O  growth inhibition           9.25

Problem: Which growth inhibition value belongs to CCOC(=O)CC(C(=O)OCC)C(C(=O)OCC)C(=O)OCC (stereo unspecified) ?
Result: 29.8

Problem: Quick one: CC(=O)OCC(C)(C(N)=O)c1ccccc1 (stereo unspecified)
Result: -5.9

Problem: Quick one: `CNc1ccc(Br)cc1[N+](=O)[O-]`
Result: -26.7

----------
Assay: NCI Yeast Anticancer Drug Screen. Data for the mlh1 rad18 strain (AID 175)
Conditions: S. cerevisiae mlh1 rad18 strain growth inhibition; at 50.0 µM; stronger effect = higher value
The panel holds about 79,000 compounds, 15% with a hit somewhere; the sample as a whole holds those more often.
recorded.endpoint: growth inhibition (%)
# unit: % | format: bare number

> print(dat)
                                   compound  result.number
1  CC(=O)OCC12CC(c3ccoc3)OC3CCC4C(=O)OC(CC1C)C4(C)C32 (stereo not given)          -22.8
2  CCCCCCCCCCCCCCCCCCCCCCOC(=O)CCC(=O)OCCCCCCCCCCCCCCCCCCCCCC           5.75
3  OC(C#Cc1ccccc1)(C#Cc1ccccc1)/C=C/c1ccccc1           11.5
4  CC1(C)CC(NC(=O)C(C)(C)Oc2ccc(Cl)cc2)CC(C)(C)N1           25.8
5      O=[N+]([O-])c1ccc(OC(=S)N2CCOCC2)cc1          -0.65

Switching to the query record.
Problem: Which growth inhibition value belongs to `O=C(O)CCCC1(CCCC(=O)O)OCCO1` ?
Result: -2.8

----------
Assay: NCI Yeast Anticancer Drug Screen. Data for the bub3 strain (AID 167)
Conditions: S. cerevisiae bub3 mutant strain, at 50.0 µM, stronger effect = higher value
The panel holds about 79,000 compounds, 15% with a hit somewhere; the sample as a whole holds those more often.
recorded.endpoint: growth inhibition (%)
# unit: % | format: bare number

Known growth inhibition results, listed for orientation:
molecule	growth inhibition / %
CN(C)Cc1c(C(O)(c2ccccc2)c2ccccc2)cc2ccccc2c1Cl	1.05
C1=Nc2ccccc2/C1=C/c1cccs1	13
CC(=O)O[C@H]1CC[C@@]2(C)[C@@H](CC[C@@H]3[C@@H]2CC(=O)[C@]2(C)[C@@H]4[C@H](C[C@@H]32)O[C@]2(CC[C@@H](C)CO2)[C@H]4C)C1	-34.6
CCCCOC(=O)/C=C/c1ccc(OC(C)C)cc1	19.9
Cc1cccc2c1C(=O)OC2(c1cccc2ccccc12)c1cccc2ccccc12	0
Cc1ccc(S(=O)(=O)N(CCO)CC(C)O)cc1 (stereo unspecified)	-24.1

Switching to the query record.
Problem: Which growth inhibition value belongs to `CCCCCCCCCCOc1ccc(C2=C(c3ccccc3)C(=O)C(c3ccccc3)=C2c2ccccc2)cc1` ?
Result: -5.3

----------
Experiment: NCI Yeast Anticancer Drug Screen. Data for the rad50 strain (AID 155);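 note: 0% = growth of vehicle-only cultures of the same strain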
Conditions: S. cerevisiae rad50 strain growth inhibition; at 50.0 µM; stronger effect = higher value
About 79,000 compounds went through this panel and 15% of them were active in at least one assay; those are over-represented in the sample as a whole.
recorded.endpoint: growth inhibition (%)
# unit: % | format: bare number

Known growth inhibition results, listed for orientation:
compound	result.number
Cc1c2c(n3c(nc4ccccc43)c1C#N)N(c1ccc(Cl)cc1)CC2	1.1
C=CCN1C=CC=C/C1=C\C=C(/C#N)C(=O)OCC	10.8
CCCC(/C(C)=N/NC(N)=O)C1CCCCC1 (stereo unspecified)	14.2
CCCCCCCCOC1OC(COC(C)=O)C(OC(C)=O)C(OC(C)=O)C1OC(C)=O (stereo unspecified)	-3
CCCCCCCCCCCCCCCC(=O)O (tested in a mixture with another compound)	7.65
CC1(n2nc(-c3ccccc3)n(-c3ccccc3)c2=O)CSC1	-8.4

Problem: Which growth inhibition value belongs to `CC(=O)Nc1c(C(=N)C#N)ncn1CCO` ?
Result: 2.3

Problem: Quick one: `CC1(C)O[C@H]2[C@H](O)C[C@](O)(CO)C[C@H]2O1`
Result: 1.3

Problem: Quick one: O=C1C(=Nc2ccc(Cl)nc2)CC(c2ccccc2)N1c1ccc(Cl)nc1 (stereo unspecified)
Result: 7.9

Problem: Quick one: `Oc1c(N=Nc2ccccc2)c2ccccc2c2ccc3ccccc3c12`
Result: -23.3

Problem: Quick one: COc1cccc(C2ON=C(c3ccccc3)N2C23CC4CC(CC(C4)C2)C3)c1 (stereo unspecified)
Result: 8.5

----------
Experiment: NCI Yeast Anticancer Drug Screen. Data for the bub3 strain (AID 167)
Conditions: S. cerevisiae bub3 mutant strain, at 50.0 µM, stronger effect = higher value
Compounds without any hit were thinned out: in the full panel of roughly 79,000, 15% have a hit.
recorded.endpoint: growth inhibition (%)
# unit: % | format: bare number

> print(dat)
                                   compound  result.number
1          COC(=O)c1ccc(N=NN(C)COC(C)=O)cc1           10.2
2  OCC1CC(c2ccccc2)=NO1 (centres undefined)           -3.9
3  C=C1C(=O)OC2(CCCCC)CCCCC12 (centres undefined)            0.5
4        CC/C(=C\c1ccc(NC(C)=O)cc1)c1ccncc1          -12.8
5  CC(=O)N(CCc1ccccc1)C(C)(C#N)c1ccccc1 (centres undefined)          -12.2
6                  NC(=O)c1nnc2cc(F)ccc2c1N            1.6

Problem: Which growth inhibition value belongs to CCOC(=O)C1SC(=Nc2ccc(C)c(C)c2)N=C1C (centres undefined) ?
Result: 4.85

Problem: Quick one: `CN(C)CCC(CCN(C)C)=NOC(=O)c1ccccc1`
Result: 21.4

Problem: Quick one: O=C(OCC1CCCO1)c1ccccc1 (centres undefined)
Result: -8.75

Problem: Quick one: CCCCCC1OCC(C)(C)C(C(C)C)O1 (centres undefined)
Result: -13.6

Problem: Quick one: CC1(C2(C)CC2(Br)Br)CC1(Br)Br (centres undefined)
Result: -2.5

Problem: Quick one: OC(CCCCCCCCC(O)CN1CCCCC1)CN1CCCCC1 (centres undefined)
Result: 20.6

Problem: Quick one: `CNC(=O)Nc1ccnc(=O)[nH]1`
Result: -9.55

Problem: Quick one: `NNC(=O)Cc1c[nH]c2ccccc12`
Result: 6

----------
Experiment: NCI Yeast Anticancer Drug Screen. Data for the cln2 rad14 strain (AID 165);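 note: 0% = growth equal to vehicle treated cultures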
Conditions: S. cerevisiae cln2 rad14 strain, at 50.0 µM, stronger effect = higher value
About 79,000 compounds went through this panel and 15% of them were active in at least one assay; those are over-represented in the sample as a whole.
recorded.endpoint: growth inhibition (%)
# unit: % | format: bare number

> print(dat)
                                   molecule  result.number
1                          CCC(CC)NNC(CC)CC           5.35
2  CC(=O)NC(c1ccc(F)cc1)(c1ccc(F)cc1)C(F)(F)F           35.6

Problem: Which growth inhibition value belongs to CC(CNC(N)=O)NC(N)=O (centres undefined) ?
Result: 11.4

Problem: Quick one: `COc1cccc(/C=C2\S/C(=N/Nc3nc(C)c(C)s3)NC2=O)c1O`
Result: 18

Problem: Quick one: `Cc1nc2ccc(Br)cc2c(=O)n1-c1ccc(N=Cc2ccccc2Cl)cc1`
Result: 19.6

Problem: Quick one: `COC(=O)c1ccccc1-n1c(-c2ccc([N+](=O)[O-])cc2)csc1=NC(=O)c1cccc([N+](=O)[O-])c1`
Result: -1.05

Problem: Quick one: `CC(=O)c1ccc[cH-]1.[Fe+2].c1cc[cH-]c1`
Result: 4.25

Problem: Quick one: `CSc1nc[nH]c1C(N)=S`
Result: -7.4

Problem: Quick one: `CCCCNC(=O)OCc1cnc(C)n1Cc1ccccc1`
Result: 4.95

Problem: Quick one: `c1ccc2[nH]c(CN3CCCCC3)cc2c1`
Result: -18.8

Problem: Quick one: `CCCCCc1cc(C(=O)NN)c2ccccc2n1`
Result: -15.8

Problem: Quick one: COc1ccc(C(C)OC)cc1OC (centres undefined)
Result: -16.6

Problem: Quick one: `COc1ccc(C)cc1NC(=S)NC(=O)c1cccc2ccccc12`
Result: -61.1

Problem: Quick one: `O=Nc1c(-c2ccccc2)nnc(-c2ccccc2)c1N=O`
Result: -54.8

Problem: Quick one: C/C(=N/NC(=O)C1CCCO1)c1ccc(C)cc1 (centres undefined)
Result: -92

Problem: Quick one: `CN(C)c1ccc(/C=C/c2ccnc3ccc(Br)cc23)cc1`
Result: 14.9

Problem: Quick one: `COc1cc(OC)cc(N2CCC(c3c(N)nc(N)nc3Cl)CC2)c1`
Result: -2.25

Problem: Quick one: `O=[N+]([O-])c1ccc(-c2cccc3ccccc23)c([N+](=O)[O-])c1`
Result: 15.9

Problem: Quick one: O=C(O)c1cc(CC2Cc3cc4c(cc3C2=O)CCC4)cc2c1CCC2 (centres undefined)
Result: 6.05

Problem: Quick one: `Cc1ccc(NC(=O)/C(CC(=O)c2c[n+](=O)c3ccccc3n2O)=N\NC(=O)C[n+]2ccccc2)cc1`
Result: 24.8

Problem: Quick one: O=C1CCC2c3ccccc3NCN12 (centres undefined)
Result: 22.4

Problem: Quick one: `O=C1NN=C(C2CCCCC2)C12CCCCC2`
Result: 2.85

Problem: Quick one: `CC(C)c1cccc(C(C)C)c1NC(=O)Nc1cccc(C(F)(F)F)c1`
Result: 8.3

Problem: Quick one: `Cc1[nH]c2ccccc2c1C(c1ccccc1O)c1c(C)[nH]c2ccccc12`
Result: 18.6
